- Tested on: E.coli CAN-ICU 63074
- Type: cell-based, Escherichia coli
- recordedConditions: CAN-ICU 63074, 24 h
Where a SMILES comes first, the peptide text is derived from it. [ ]: non-standard residue; d: D form. The star is where a group is joined. Myristoyl = CCCCCCCCCCCCCC(=O)*; Nlys = NCCCCNCC(=O)O
readoutType: MIC E.coli (µg/mL)

>>> numericresult("CCCCCCCCCCCCCC(=O)N(CCCCN)CC(=O)NCC(=O)N(CCCCN)CC(N)=O [C14-NlysGNlys] (Myristoyl-[Nlys]-Gly-[Nlys]-NH2)")
128

A. CCCCCCCCCCCCCCCC(=O)N(CCCCNC(=N)N)CC(=O)N(CCCCNC(=N)N)CC(=O)N(CCCCNC(=N)N)CC(N)=O [C16-NhargNhargNharg]
B. CCCCCCCCCCCCCC(=O)N(CCCCNC(=N)N)CC(=O)NCC(=O)N(CCCCNC(=N)N)CC(N)=O [C14-NhargGNharg]
Req: Out of A and B , name the one with the higher MIC E.coli. Please respond with the label that marks your chosen entry.
Resp: B
(B: 64 µg/mL, A: 32 µg/mL)
